Where do these numbers come from? They come from the supplement of paper PMC10307832.

This listing pairs molecules with measured relative viability.
system: NCI-H2347; assay: relative viability (nuclei count vs DMSO), 5 days (fraction); higher = more cells survive; details: first compound 0.003162 µM
value type: relative viability

molecule	value type	test result
Cc1cn(-c2cc(NC(=O)c3ccc(C)c(Nc4nccc(-c5cccnc5)n4)c3)cc(C(F)(F)F)c2)cn1 [Nilotinib] + CC1(C)CCC(c2ccc(Cl)cc2)=C(CN2CCN(c3ccc(C(=O)NS(=O)(=O)c4ccc(N[C@H](CCN5CCOCC5)CSc5ccccc5)c(S(=O)(=O)C(F)(F)F)c4)cc3)CC2)C1 [Navitoclax] (partner 0.5 µM)	relative viability	0.959
Cc1cn(-c2cc(NC(=O)c3ccc(C)c(Nc4nccc(-c5cccnc5)n4)c3)cc(C(F)(F)F)c2)cn1 [Nilotinib] + CS(=O)(=O)N1CCN(Cc2cc3nc(-c4cccc5[nH]ncc45)nc(N4CCOCC4)c3s2)CC1 [Pictilisib] (partner 1 µM)	relative viability	0.679
